# experimental protocol: Oral bioavailability in rat at 15 mg/kg
# Format: ADME, organism-based
# test context: in vivo
test readout: bioavailability (%)

chemical structure	test readout	experimental result
COc1ccc(N2CCN(CC[C@@H](OC(N)=O)c3ccccc3)CC2)cc1	bioavailability	73.8

----------
# system under test: Sigma non-opioid intracellular receptor 1 (Homo sapiens)
# Sequence (Q99720 whole entry): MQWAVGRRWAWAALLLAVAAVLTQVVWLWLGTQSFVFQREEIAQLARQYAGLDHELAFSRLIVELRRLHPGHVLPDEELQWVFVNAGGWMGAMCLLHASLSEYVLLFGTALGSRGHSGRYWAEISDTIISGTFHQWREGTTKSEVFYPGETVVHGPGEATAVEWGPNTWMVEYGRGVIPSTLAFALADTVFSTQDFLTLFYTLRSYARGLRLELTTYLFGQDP
# experimental protocol: Binding affinity to Sigma1

chemical structure	display unit	Ki
COc1ccc(N2CCN(CC[C@@H](OC(N)=O)c3ccccc3)CC2)cc1	nM	392

----------
# system under test: 5-hydroxytryptamine receptor 1A (Rattus norvegicus) (UniProt P19327)
# Sequence (P19327 whole entry): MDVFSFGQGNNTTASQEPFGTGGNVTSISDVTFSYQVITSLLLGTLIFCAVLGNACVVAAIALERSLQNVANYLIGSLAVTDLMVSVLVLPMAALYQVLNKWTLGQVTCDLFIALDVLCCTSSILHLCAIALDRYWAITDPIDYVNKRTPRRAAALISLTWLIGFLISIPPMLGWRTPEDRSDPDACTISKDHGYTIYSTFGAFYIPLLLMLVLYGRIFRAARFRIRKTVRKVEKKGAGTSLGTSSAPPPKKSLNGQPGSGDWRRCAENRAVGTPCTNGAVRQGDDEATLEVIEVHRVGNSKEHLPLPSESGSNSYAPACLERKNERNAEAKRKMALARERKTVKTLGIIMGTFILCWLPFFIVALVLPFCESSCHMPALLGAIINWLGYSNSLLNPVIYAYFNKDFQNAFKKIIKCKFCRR
# experimental protocol: Displacement of [3H]-8-OH-DPAT from 5HT1A receptor in rat hippocampus at 1 uM
# Assay type: tissue-based
We begin with a simple list: items and their reported inhibition.
test readout: inhibition (%)

molecule	system under test	experimental result
CC(C)(C)c1ccc(C(CCN2CCN(c3ccccc3)CC2)OC(N)=O)cc1 (single isomer, unassigned)	5-hydroxytryptamine receptor 1A (Rattus norvegicus) (UniProt P19327)	44.4
NC(=O)OC(CCN1CCN(c2ccccc2)CC1)c1ccc([N+](=O)[O-])cc1 (single isomer, unassigned)	5-hydroxytryptamine receptor 1A (Rattus norvegicus) (UniProt P19327)	81.4
NC(=O)OC(CCN1CCN(c2ccccc2)CC1)c1cccc(Cl)c1 (single isomer, unassigned)	5-hydroxytryptamine receptor 1A (Rattus norvegicus) (UniProt P19327)	76.4
NC(=O)OC(CCN1CCN(c2ccccc2)CC1)c1ccc(F)cc1 (stereo unspecified)	5-hydroxytryptamine receptor 1A (Rattus norvegicus) (UniProt P19327)	65.5
COc1ccc(C(CCN2CCN(c3ccccc3)CC2)OC(N)=O)cc1 (single isomer, unassigned)	5-hydroxytryptamine receptor 1A (Rattus norvegicus) (UniProt P19327)	67.7
NC(=O)OC(CCN1CCN(c2ccc([N+](=O)[O-])cc2)CC1)c1ccc(F)cc1 (single isomer, unassigned)	5-hydroxytryptamine receptor 1A (Rattus norvegicus) (UniProt P19327)	29.6

Reference for the values: ChEMBL document CHEMBL2157932
